Origin of the recorded values: ChEMBL document CHEMBL2375357

// values below are reported IC50
tested on: HeLa; assay: Cytotoxicity against human HeLa cells after 24 hrs by MTT assay; assay type: functional, cell-based

# MOLECULE, UNITS, IC50
records = [
    ("C[C@@H]1CC[C@]2(C(=O)NCc3ccccc3)CC[C@]3(C)C(=CC[C@@H]4[C@@]5(C)CC[C@H](O)[C@@](C)(CO)[C@@H]5CC[C@]43C)[C@@H]2[C@]1(C)O", "µM", 28.1),
    ("CC(CO)NC(=O)[C@]12CC[C@@H](C)[C@@](C)(O)[C@H]1C1=CC[C@@H]3[C@@]4(C)CC[C@H](O)[C@@](C)(CO)[C@@H]4CC[C@@]3(C)[C@]1(C)CC2 (some centres not stated)", "µM", 28.8),
    ("C[C@@H]1CC[C@]2(C(=O)Nc3ccccc3)CC[C@]3(C)C(=CC[C@@H]4[C@@]5(C)CC[C@H](O)[C@@](C)(CO)[C@@H]5CC[C@]43C)[C@@H]2[C@]1(C)O", "µM", 23.2),
    ("CC(=O)OC[C@@]1(C)[C@@H]2CC[C@]3(C)[C@H](CC=C4[C@H]5[C@](C(=O)Nc6ccccc6)(CC[C@@H](C)[C@@]5(C)O)CC[C@]43C)[C@@]2(C)CC[C@@H]1OC(C)=O", "µM", 15.8),
    ("CC(=O)OC[C@@]1(C)[C@@H]2CC[C@]3(C)[C@H](CC=C4[C@H]5[C@](C(=O)NCc6ccccc6)(CC[C@@H](C)[C@@]5(C)O)CC[C@]43C)[C@@]2(C)CC[C@@H]1OC(C)=O", "µM", 19.2),
    ("CC(=O)OCCNC(=O)[C@]12CC[C@@H](C)[C@@](C)(O)[C@H]1C1=CC[C@@H]3[C@@]4(C)CC[C@H](OC(C)=O)[C@@](C)(COC(C)=O)[C@@H]4CC[C@@]3(C)[C@]1(C)CC2", "µM", 5.39),
    ("CC(=O)OC[C@@]1(C)[C@@H]2CC[C@]3(C)[C@H](CC=C4[C@H]5[C@](C(=O)Nc6ccccc6CO)(CC[C@@H](C)[C@@]5(C)O)CC[C@]43C)[C@@]2(C)CC[C@@H]1OC(C)=O", "µM", 3.32),
]
